Molecular target: T1, rat GALR2 (rat)
T1 chain: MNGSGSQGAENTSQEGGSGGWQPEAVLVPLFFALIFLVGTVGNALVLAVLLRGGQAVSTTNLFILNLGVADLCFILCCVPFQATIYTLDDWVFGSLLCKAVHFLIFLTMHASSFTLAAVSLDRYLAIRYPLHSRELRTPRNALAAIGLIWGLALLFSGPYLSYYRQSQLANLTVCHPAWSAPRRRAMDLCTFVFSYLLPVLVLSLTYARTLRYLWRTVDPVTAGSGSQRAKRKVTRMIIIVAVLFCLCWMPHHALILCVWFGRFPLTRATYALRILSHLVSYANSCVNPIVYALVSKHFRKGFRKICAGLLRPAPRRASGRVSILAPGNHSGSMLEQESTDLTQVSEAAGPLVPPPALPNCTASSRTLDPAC
Assay: competition
Settings: modification not given
measurement-label: Ki

Indicate its recorded Ki; the binder in question is GWTLNSAGALLGPHAI [[Ala9]galanin(1-16), P07480]
> 1000 nM

Given GWTLASAGYLLGPHAI [[Ala5]galanin(1-16), P07480] , respond with its Ki.
> 620 nM

Find the measured Ki of GFTLNSAGYLLGPHAIDNHRSFHDKYGLA [[Phe2]porcine galanin(1-29), P07480] and report it.
> 1000 nM

Answer with the recorded Ki for the binder listed here: GWTLNSAGY [porcine galanin 1-9, P07480]
> 1000 nM

Read off the recorded Ki for GWTLNSAGYLLGPHAIDNHRSFHDKYGLA [porcine galanin(1-29), P07480]
0.447 nM

Write down Ki measured for item GFTLNSAGYLLGPHAI [Phe2-galanin 1-16, P07480]
> 1000 nM

Identify measured Ki associated with GATLNSAGYLLGPHAI [porcine Ala2-galanin 1-16, P07480]
> 1000 nM

Item DNHRSFHDKYGLA [porcine galanin 17-29, P07480] : provide Ki
> 1000 nM

Complete the entry with Ki for GWTLNSAGYLLGPHAIDNHRSFHDKYGLA [[D-Trp2]porcine galanin(1-29), P07480]
6.46 nM
